target-under-test: Rat recombinant PDE10a (rPDE10a) (Rattus norvegicus (Rat))
Sequence (Q9QYJ6 whole entry): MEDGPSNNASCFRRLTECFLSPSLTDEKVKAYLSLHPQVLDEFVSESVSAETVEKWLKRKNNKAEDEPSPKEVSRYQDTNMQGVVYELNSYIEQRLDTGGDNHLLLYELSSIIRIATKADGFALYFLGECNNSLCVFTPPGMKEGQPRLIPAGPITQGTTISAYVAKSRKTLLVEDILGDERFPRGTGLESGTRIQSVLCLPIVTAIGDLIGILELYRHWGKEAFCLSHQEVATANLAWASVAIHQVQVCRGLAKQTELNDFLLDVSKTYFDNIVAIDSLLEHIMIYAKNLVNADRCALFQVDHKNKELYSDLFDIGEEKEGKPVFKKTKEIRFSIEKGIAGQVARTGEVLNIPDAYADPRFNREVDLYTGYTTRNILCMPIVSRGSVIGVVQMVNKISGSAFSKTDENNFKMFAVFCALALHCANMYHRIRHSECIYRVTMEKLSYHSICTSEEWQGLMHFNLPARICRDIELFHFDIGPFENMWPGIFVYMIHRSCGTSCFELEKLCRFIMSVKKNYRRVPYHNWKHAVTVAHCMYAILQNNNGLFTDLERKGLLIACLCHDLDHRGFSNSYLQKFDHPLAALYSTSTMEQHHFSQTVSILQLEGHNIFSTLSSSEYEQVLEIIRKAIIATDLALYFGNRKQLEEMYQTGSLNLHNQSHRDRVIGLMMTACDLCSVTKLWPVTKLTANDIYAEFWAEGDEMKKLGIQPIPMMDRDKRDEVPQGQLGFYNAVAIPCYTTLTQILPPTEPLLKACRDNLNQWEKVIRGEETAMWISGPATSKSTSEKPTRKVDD
procedure-details: In vitro assay PDE10a: rat recombinant PDE10a SPA with 3H-cAMP substrate, IC50
measurement-parameters: 60 nM cAMP, read-out: rPDE10a2 IC50
Counter-ions that a name gives are not always drawn.
readout-name: pIC50
// pIC50 is dimensionless: -log10 of concentration (M)

molecule=OC(c1ccc(-c2c(/C=C/c3ccc4ccccc4n3)nc3c(N4CCOCC4)ccnn23)cc1)(C(F)(F)F)C(F)(F)F number=7.39
molecule=Clc1cc(N2CCOCC2)c2nc([C@H]3C[C@H](c4ccc5ccccc5n4)C3)cn2n1 number=7.52

Query: Dear colleague, I am looking for the recorded pIC50 of the following molecule: "CS(=O)(=O)NC(=O)c1ccc(-c2c(CSc3ccc4ccccc4n3)nc3c(N4CCOCC4)ccnn23)cc1"
Response: 8.70

Query: Dear colleague, I am looking for the recorded pIC50 of the following molecule: O=C(O)c1ccc(-c2c(/C=C/c3ccc4ccccc4n3)nc3c(N4CCOCC4)ccnn23)cc1 [compound 40, trifluoroacetic acid salt]
Response: 8.70

###

target-under-test: Human recombinant PDE10A2 (Homo sapiens (Human))
Sequence (Q9Y233 267-1055): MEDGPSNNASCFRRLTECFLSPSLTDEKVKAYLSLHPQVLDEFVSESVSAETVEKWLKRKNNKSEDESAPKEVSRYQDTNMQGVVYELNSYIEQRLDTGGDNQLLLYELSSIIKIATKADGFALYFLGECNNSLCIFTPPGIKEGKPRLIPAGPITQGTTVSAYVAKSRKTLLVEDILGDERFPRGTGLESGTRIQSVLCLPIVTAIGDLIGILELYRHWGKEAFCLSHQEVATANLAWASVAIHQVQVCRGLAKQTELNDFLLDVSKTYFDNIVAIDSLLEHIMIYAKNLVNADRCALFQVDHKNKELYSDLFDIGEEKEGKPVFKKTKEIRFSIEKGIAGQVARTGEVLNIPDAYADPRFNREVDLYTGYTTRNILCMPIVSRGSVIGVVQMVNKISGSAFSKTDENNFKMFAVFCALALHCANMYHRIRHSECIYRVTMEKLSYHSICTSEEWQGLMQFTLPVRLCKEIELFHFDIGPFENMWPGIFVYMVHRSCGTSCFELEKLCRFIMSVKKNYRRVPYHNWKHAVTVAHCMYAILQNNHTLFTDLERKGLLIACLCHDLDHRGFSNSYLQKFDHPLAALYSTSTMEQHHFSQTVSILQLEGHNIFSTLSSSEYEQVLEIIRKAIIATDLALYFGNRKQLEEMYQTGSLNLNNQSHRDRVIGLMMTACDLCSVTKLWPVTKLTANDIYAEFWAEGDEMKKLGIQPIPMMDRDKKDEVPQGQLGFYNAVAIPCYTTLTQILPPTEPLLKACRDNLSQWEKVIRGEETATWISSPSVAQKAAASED
procedure-details: In vitro hPDE10a: human recombinant PDE10A2 scintillation proximity assay, IC50
measurement-parameters: human recombinant PDE10A2, SPA, 60 nM cAMP; read-out: hPDE10a2 IC50
Where a name gives a salt, the structure may show the parent alone.
Below is a list of entries, each paired with its recorded IC50 value.
Numbers only; they are read as nM.

compound="O=C(O)c1ccc2ccc(/C=C/c3cn4nc(Cl)cc(N5CCOCC5)c4n3)nc2c1 [Cpd 94]" target_under_test="Human recombinant PDE10A2 (Homo sapiens (Human))" number=53
compound="COc1ccc(C#Cc2nc3c(N4CCOCC4)ccnn3c2-c2ccc(C(=O)O)cc2)nc1 [Cpd 110]" target_under_test="Human recombinant PDE10A2 (Homo sapiens (Human))" number=2
compound="Cc1ccc(-c2c(COc3ccc4ccccc4n3)nc3c(N4CCOCC4)ccnn23)cn1 [Cpd 1]" target_under_test="Human recombinant PDE10A2 (Homo sapiens (Human))" number=115

Query: Dear colleague, I am looking for the recorded IC50 of the following compound: O=C(O)c1ccc(Nc2c(/C=C/c3ccc4ccccc4n3)nc3c(N4CCOCC4)ccnn23)c(F)c1 [Cpd 139]
Response: 1

Query: Dear colleague, I am looking for the recorded IC50 of the following compound: COc1cc(/C=C/c2nc3c(N4CCOCC4)ccnn3c2-c2ccc(C(=O)O)cc2)nc2ccccc12 [Cpd 135]
Response: 6

Query: Dear colleague, I am looking for the recorded IC50 of the following compound: O=C(O)CC1(c2ccc(-c3c([C@H]4C[C@H](c5ccc6ccccc6n5)C4)nc4c(N5CCOCC5)ccnn34)cc2)COC1 [Cpd 174]
Response: 1

Query: Dear colleague, I am looking for the recorded IC50 of the following compound: CS(=O)(=O)NC(=O)c1ccc(-c2c(CCc3ccc4ccccc4n3)nc3c(N4CCOCC4)ccnn23)cn1 [Cpd 30, trifluoroacetic acid salt]
Response: 1

Query: Dear colleague, I am looking for the recorded IC50 of the following compound: c1ccc2nc(C3CC3c3cn4nccc(N5CCOCC5)c4n3)ccc2c1 (stereo not drawn) [Cpd 161]
Response: 4

Query: Dear colleague, I am looking for the recorded IC50 of the following compound: NS(=O)(=O)c1ccc(-c2c(CCc3ccc4ccccc4n3)nc3c(N4CCOCC4)ccnn23)cc1 [compound 38]
Response: 7

Query: Dear colleague, I am looking for the recorded IC50 of the following compound: C(=C\c1nc2c(N3CCOCC3)ccnn2c1N1CCCCC1)/c1ccc2ccccc2n1 [compound 154]
Response: 72

Query: Dear colleague, I am looking for the recorded IC50 of the following compound: C(=C\c1nc2c(N3CCOCC3)ccnn2c1-c1cccc(-c2nnn[nH]2)c1)/c1ccc2ccccc2n1 [Cpd 105, trifluoroacetic acid salt]
Response: 4

Query: Dear colleague, I am looking for the recorded IC50 of the following compound: O=C(O)c1ccc(-c2c(C3CN(c4ccc5ccccc5n4)C3)nc3c(N4CCOCC4)ccnn23)cc1 [Cpd 157]
Response: 2

Query: Dear colleague, I am looking for the recorded IC50 of the following compound: O=C(O)c1ccc(-c2c(C#Cc3ccccn3)nc3c(N4CCOCC4)ccnn23)cc1 [Cpd 86]
Response: 2

Query: Dear colleague, I am looking for the recorded IC50 of the following compound: O=C(O)c1ccc(-c2c(CCc3ccc4c(n3)CCCC4)nc3c(N4CCOCC4)ccnn23)cc1 [Cpd 79, trifluoroacetic acid salt]
Response: 3

Cited source for all entries: patent US9193736B2
